- procedureText: reversal of MRP1-mediated doxorubicin resistance, pilot screen, H69AR cells, doxorubicin co-treatment (AID 601)
- experimentalParameters: H69AR cells + 2 uM doxorubicin, CellTiter-Glo, 72 h; measured here: viability with 2 uM doxorubicin; at 10 µM; stronger effect = lower value
Kindly state viability for each of the entries shown.
Answers are plain numbers, in %.

See these solved cases before continuing.
>>> assayresult("Cc1nc2ncnn2c(C)c1CCC(=O)NCCCN1CCN(c2cccc(Cl)c2)CC1")
90.1
>>> assayresult("CN(C)CCCN1c2ccccc2Sc2ccccc21")
83

State recorded viability for all listed compounds.
1. COCCn1c(CN(Cc2ccccc2)Cc2ccccc2)nc2c1c(=O)n(C)c(=O)n2C
2. Cc1ccc(S(=O)(=O)N2CCCC(c3nnc4n3-c3ccccc3SC4)C2)cc1 (stereo unspecified)
3. CCn1c(CNc2ccc(OC)cc2)nnc1SCC(=O)c1ccc(OC)cc1
4. CN(C)c1ccnc(NCc2ccccc2)c1C#N
5. Cc1cc(C)c(NC2=NCC(=O)N2C2CCCCC2)c(C)c1
6. C/C(=C\C(=O)O)CC(=O)O
7. CCOC(=O)C(C#N)C(c1cccnc1)c1c(C)[nH][nH]c1=O (stereo unspecified)

Reply |
1: 93; 2: 72; 3: 65.5; 4: 79.5; 5: 91.5; 6: 100; 7: 95.7

State recorded viability for all listed compounds.
1. O=C(Nc1ccccc1C(=O)N1CCOCC1)c1ccncc1
2. COc1ccc(C2NC(c3ccc(OC)c(OC)c3OC)C(C)C(=O)C2C)c(OC)c1OC (stereo unspecified)

Reply |
1: 93.6; 2: 84.5

The measurements presented in this section are drawn from PubChem BioAssay.
